Data provenance is patent US12364709B2.

# PROTOCOL_SUMMARY: 5 day repeat oral dosing PK of AMXT 1501 dicaprate
# Format: in vivo, beagle dogs
# RUN_CONDITIONS: both sexes, beagle, dog, plasma, po, 32 mg/kg, 32 mg/kg PO, Day 1, individual animals; read-out: Tmax
ATTRIBUTE_MEASURED: Tmax
Could you give the number and then its unit, please?

## Task So what's the measured Tmax for this one? CCCCCCCCCCCCCCCC(=O)NCCCC[C@@H](N)C(=O)NCCCNCCCCNCCCN [AMXT 1501 dicaprate]
## Result 8 h

###

# PROTOCOL_SUMMARY: 28-day repeat-dose toxicity study, toxicokinetics of AMXT 1501 dicaprate
# Format: in vivo, beagle dogs
# RUN_CONDITIONS: both sexes, beagle, dog, plasma, po, 8 mg/kg/day, 8 mg/kg/day PO, DFMO 0, Day 1, M+F combined; read-out: Cmax Median
ATTRIBUTE_MEASURED: Cmax
Could you give the number and then its unit, please?

## Task So what's the measured Cmax for this one? CCCCCCCCCCCCCCCC(=O)NCCCC[C@@H](N)C(=O)NCCCNCCCCNCCCN [AMXT 1501 dicaprate]
## Result 0.115 µg/mL

###

# PROTOCOL_SUMMARY: 28-day repeat-dose toxicity study, toxicokinetics of AMXT 1501 dicaprate
# Type: in vivo, beagle dogs
# RUN_CONDITIONS: both sexes, beagle, dog, plasma, po, 32 mg/kg/day, 32 mg/kg/day PO, DFMO 0, Day 28, M+F combined; read-out: t1/2 Median (converted)
ATTRIBUTE_MEASURED: half-life (h)
Expressed in h, but write only the number.

## Task So what's the measured half-life for this one? CCCCCCCCCCCCCCCC(=O)NCCCC[C@@H](N)C(=O)NCCCNCCCCNCCCN [AMXT 1501 dicaprate]
## Result 53.2

###

# PROTOCOL_SUMMARY: 28-day repeat-dose toxicity study, toxicokinetics of AMXT 1501 dicaprate
# Assay type: in vivo, beagle dogs
# RUN_CONDITIONS: both sexes, beagle, dog, plasma, po, 8 mg/kg/day, 8 mg/kg/day PO, DFMO 0, Day 28, M+F combined; read-out: AUC0-t Mean
ATTRIBUTE_MEASURED: AUC(0-t) (ng·h/mL)
Expressed in ng·h/mL, but write only the number.

## Task So what's the measured AUC(0-t) for this one? CCCCCCCCCCCCCCCC(=O)NCCCC[C@@H](N)C(=O)NCCCNCCCCNCCCN [AMXT 1501 dicaprate]
## Result 3390

###

# PROTOCOL_SUMMARY: 28-day repeat-dose toxicity study, toxicokinetics of AMXT 1501 dicaprate
# Type: in vivo, beagle dogs
# RUN_CONDITIONS: both sexes, beagle, dog, plasma, po, 8 mg/kg/day, 8 mg/kg/day PO, DFMO 50 mg/kg/day, Day 28, M+F combined; read-out: t1/2 Median (converted)
ATTRIBUTE_MEASURED: half-life (h)
Expressed in h, but write only the number.

## Task So what's the measured half-life for this one? CCCCCCCCCCCCCCCC(=O)NCCCC[C@@H](N)C(=O)NCCCNCCCCNCCCN [AMXT 1501 dicaprate]
## Result 20.3

###

# PROTOCOL_SUMMARY: 28-day repeat-dose toxicity study, toxicokinetics of AMXT 1501 dicaprate
# Assay type: in vivo, beagle dogs
# RUN_CONDITIONS: both sexes, beagle, dog, plasma, po, 32 mg/kg/day, 32 mg/kg/day PO, DFMO 0, Day 28, M+F combined; read-out: AUC0-t Mean
ATTRIBUTE_MEASURED: AUC(0-t) (ng·h/mL)
Expressed in ng·h/mL, but write only the number.

## Task So what's the measured AUC(0-t) for this one? CCCCCCCCCCCCCCCC(=O)NCCCC[C@@H](N)C(=O)NCCCNCCCCNCCCN [AMXT 1501 dicaprate]
## Result 24700

###

# PROTOCOL_SUMMARY: 28-day repeat-dose toxicity study, toxicokinetics of AMXT 1501 dicaprate
# Type: in vivo, beagle dogs
# RUN_CONDITIONS: both sexes, beagle, dog, plasma, po, 8 mg/kg/day, 8 mg/kg/day PO, DFMO 0, Day 28, M+F combined; read-out: t1/2 Median (converted)
# Experimental: AMXT 1501 PK parameters were calculated for all AMXT 1501 dicaprate-dosed animals for the first dose (Day 1) and last dose (Day 28).
ATTRIBUTE_MEASURED: half-life (h)
Expressed in h, but write only the number.

## Task So what's the measured half-life for this one? CCCCCCCCCCCCCCCC(=O)NCCCC[C@@H](N)C(=O)NCCCNCCCCNCCCN [AMXT 1501 dicaprate]
## Result 18.7

###

# PROTOCOL_SUMMARY: Pharmacokinetic analysis of AMXT 1501 salt forms, single oral tablet dose
# Assay type: in vivo, beagle dogs
# RUN_CONDITIONS: beagle, dog, plasma, po, 16 mg/kg, single PO dose 16.0 mg/kg, t=24 hours, plasma AMXT 1501; read-out: AUC0-t Mean
ATTRIBUTE_MEASURED: AUC(0-t)
Could you give the number and then its unit, please?

## Task So what's the measured AUC(0-t) for this one? CCCCCCCCCCCCCCCC(=O)NCCCC[C@@H](N)C(=O)NCCCNCCCCNCCCN [AMXT 1501 dicaprate]
## Result 6580 ng·h/mL

###

# PROTOCOL_SUMMARY: Pharmacokinetic analysis of AMXT 1501 salt forms, single oral tablet dose
# Type: in vivo, beagle dogs
# RUN_CONDITIONS: beagle, dog, plasma, po, 16 mg/kg, single PO dose 16.0 mg/kg (2 x 80 mg tablets), plasma AMXT 1501; read-out: Tmax Median
ATTRIBUTE_MEASURED: Tmax (h)
Expressed in h, but write only the number.

## Task So what's the measured Tmax for this one? CCCCCCCCCCCCCCCC(=O)NCCCC[C@@H](N)C(=O)NCCCNCCCCNCCCN [AMXT 1501 dicaprate]
## Result 6

###

# PROTOCOL_SUMMARY: 28-day repeat-dose toxicity study, toxicokinetics of AMXT 1501 dicaprate
# Assay type: in vivo, beagle dogs
# RUN_CONDITIONS: both sexes, beagle, dog, plasma, po, 16 mg/kg/day, 16 mg/kg/day PO, DFMO 50 mg/kg/day, Day 28, M+F combined; read-out: AUC0-t Mean
ATTRIBUTE_MEASURED: AUC(0-t) (ng·h/mL)
Expressed in ng·h/mL, but write only the number.

## Task So what's the measured AUC(0-t) for this one? CCCCCCCCCCCCCCCC(=O)NCCCC[C@@H](N)C(=O)NCCCNCCCCNCCCN [AMXT 1501 dicaprate]
## Result 9440

###

# PROTOCOL_SUMMARY: 5 day repeat oral dosing PK of AMXT 1501 dicaprate
# Assay type: in vivo, beagle dogs
# RUN_CONDITIONS: both sexes, beagle, dog, plasma, po, 8 mg/kg, 8 mg/kg PO once daily, Day 5, individual animals; read-out: t1/2 (converted)
ATTRIBUTE_MEASURED: half-life (h)
Expressed in h, but write only the number.

## Task So what's the measured half-life for this one? CCCCCCCCCCCCCCCC(=O)NCCCC[C@@H](N)C(=O)NCCCNCCCCNCCCN [AMXT 1501 dicaprate]
## Result 9.55

###

# PROTOCOL_SUMMARY: 28-day repeat-dose toxicity study, toxicokinetics of AMXT 1501 dicaprate
# Type: in vivo, beagle dogs
# RUN_CONDITIONS: both sexes, beagle, dog, plasma, po, 32 mg/kg/day, 32 mg/kg/day PO, DFMO 0, Day 1, M+F combined; read-out: AUC0-24 hr Median
ATTRIBUTE_MEASURED: AUC(0-t)
Could you give the number and then its unit, please?

## Task So what's the measured AUC(0-t) for this one? CCCCCCCCCCCCCCCC(=O)NCCCC[C@@H](N)C(=O)NCCCNCCCCNCCCN [AMXT 1501 dicaprate]
## Result 3640 ng·h/mL

###

# PROTOCOL_SUMMARY: 28-day repeat-dose toxicity study, toxicokinetics of AMXT 1501 dicaprate
# Format: in vivo, beagle dogs
# RUN_CONDITIONS: both sexes, beagle, dog, plasma, po, 16 mg/kg/day, 16 mg/kg/day PO, DFMO 50 mg/kg/day, Day 28, M+F combined; read-out: AUC0-24 hr Median
ATTRIBUTE_MEASURED: AUC(0-t) (ng·h/mL)
Expressed in ng·h/mL, but write only the number.

## Task So what's the measured AUC(0-t) for this one? CCCCCCCCCCCCCCCC(=O)NCCCC[C@@H](N)C(=O)NCCCNCCCCNCCCN [AMXT 1501 dicaprate]
## Result 3340

###

# PROTOCOL_SUMMARY: 5 day repeat oral dosing PK of AMXT 1501 dicaprate
# Format: in vivo, beagle dogs
# RUN_CONDITIONS: both sexes, beagle, dog, plasma, po, 32 mg/kg, 32 mg/kg PO, Day 1, individual animals; read-out: AUC0-t
ATTRIBUTE_MEASURED: AUC(0-t)
Could you give the number and then its unit, please?

## Task So what's the measured AUC(0-t) for this one? CCCCCCCCCCCCCCCC(=O)NCCCC[C@@H](N)C(=O)NCCCNCCCCNCCCN [AMXT 1501 dicaprate]
## Result 6250 ng·h/mL
